test system: DLD-1; assay: NCI tumour cell line growth inhibition, 48 h
Active and inactive are the calls of the source. Cut-off read from the data, not from the text of the source: active = GI50 up to about 1.1 µM and inactive = higher.
Can you answer with just one of these options? active, inactive

Per the assay record, what outcome was assigned to OC(CC1SCCCS1)c1ccccc1 (stereo not drawn) ?
inactive

Per the assay record, what outcome was assigned to Cc1cccc(C)c1NC(=O)C1C(=O)N(c2c(C)cccc2C)C(=O)/C1=N\N (stereo not drawn) ?
inactive

Per the assay record, what outcome was assigned to O=C(Nc1cc(Cl)cc(Cl)c1)/C(Cc1nc2ccccc2nc1O)=N/NC(=O)c1ccncc1 ?
inactive

Per the assay record, what outcome was assigned to CCN(CC)CC1CCCCN1CC(=O)N1CC(C)C(=O)Nc2ccccc21 (stereo not drawn) ?
inactive

Per the assay record, what outcome was assigned to [N-]=[N+]=NC1(Cc2ccccc2)C(=O)Nc2ccccc2C1=O (stereo not drawn) ?
inactive

Per the assay record, what outcome was assigned to CC1=C(C(=O)Nc2ccccc2C)C(c2ccccc2)C(C(=O)Nc2ccccc2C)=C(C)N1 ?
inactive

Per the assay record, what outcome was assigned to Cc1nc2sccn2c1C(=O)NC(=O)Nc1ccc(Cl)cc1 ?
inactive

Per the assay record, what outcome was assigned to [N-]=[N+]=C1C(=O)C2CC3CC1CC2C3 (stereo not drawn) ?
inactive

Per the assay record, what outcome was assigned to N=C(c1ccccc1)N(c1ccccc1)c1ccccc1 ?
inactive

Per the assay record, what outcome was assigned to CN(C)CC1CCC(CN(C)C)C1=NO (stereo not drawn) ?
inactive

Per the assay record, what outcome was assigned to O=S1(=O)CCC2=CC(C(F)(F)F)=CC(C(F)(F)F)=CN21 ?
active

Per the assay record, what outcome was assigned to Cc1ccccc1NC(=O)c1ccc([N+](=O)[O-])cc1 ?
inactive

Per the assay record, what outcome was assigned to Cc1cccc(-c2nnc3s/c(=C\c4ccc5c(c4)OCO5)c(=O)n23)c1 ?
inactive

---

test system: SW-620; assay: NCI tumour cell line growth inhibition, 48 h
The source made the active and inactive calls. No stated cut-off is given here; in the data, active = GI50 up to about 1.1 µM and inactive = higher.
# GI50 per entry

Examples from the recorded data:
According to the records, this compound COc1cccc2nc3c(C(=O)NCCN(C)C)cccc3nc12 displays GI50 of 5.42 µM (inactive)

According to the records, this compound COc1ccc(NC(=O)CC/C(CC(=O)C(C)(C)C)=N\NC(=O)C(=O)NN)cc1 displays GI50 of > 100 µM (inactive)

According to the records, this compound CCCCNC(=S)Nc1nc(C(=O)NNC(=S)NCC)cs1 displays GI50 of 97.9 µM (inactive)

According to the records, this compound NC(CSC(=O)c1ccccc1)C(=O)O (configuration not stated) displays GI50 of > 100 µM (inactive)

According to the records, this compound O=C(O)C(Cc1ccccc1-c1ccccc1)C(=O)O displays GI50 of > 100 µM (inactive)

Now, please, on to the next compound.
According to the records, this compound O=[N+]([O-])c1ccc2c3c1[C@@H]1O[C@@H]1c1cccc(c1-3)[C@@H]1O[C@H]21 displays GI50 of 2.72 µM (inactive)

---

tested on: NCI-H23; assay: NCI tumour cell line growth inhibition, 48 h
Calls of active or inactive are those of the source. No stated cut-off is given here; in the data, active = GI50 up to about 1.1 µM and inactive = higher.
Can you answer with just one of these options? yes = active, no = inactive

These solved cases illustrate the format of a correct answer.
Per the assay record, what outcome was assigned to COc1ccc(/C(=N\Nc2ccccn2)c2ccccn2)cc1 ?
yes

Per the assay record, what outcome was assigned to COc1ccc(-c2cc(O)c3cc(C)cnc3n2)cc1 ?
no

Per the assay record, what outcome was assigned to CCCCCCCCCCCC(=O)NCc1ccc(OC(=O)CCCCCCCCCCC)c(OC)c1 ?
no

Per the assay record, what outcome was assigned to C[N+](C)(CCNC(=O)c1cccc2cc3ccccc3nc12)Cc1ccc([N+](=O)[O-])cc1 ?
no

Per the assay record, what outcome was assigned to O=CC1=CCCC2(C1)OCCO2 ?
no

Per the assay record, what outcome was assigned to O=C1c2ccccc2C(=O)c2[nH]c(Cc3ccc(F)cc3)nc21 ?
no

***
Per the assay record, what outcome was assigned to COc1ccc(C(=O)N2CCN(c3ccc4[nH]c(=O)oc4c3)CC2)cc1 ?
no

Per the assay record, what outcome was assigned to Cc1ccc(S(=O)(=O)N2C3C=CC(C3)[C@@H]2C(Cl)(Cl)Cl)cc1 (some centres not stated) ?
no

Per the assay record, what outcome was assigned to CN(C)CCNC1=CC(=O)c2nc3ccccc3c3ccnc1c23 ?
no

Per the assay record, what outcome was assigned to COc1ccc2c(c1)c(=O)c1c(NCCCN(C)CCCNc3ccc4c(=O)n(CCN(C)C)c(=O)n5c6ccc(OC)cc6c(=O)c3c45)ccc3c(=O)n(CCN(C)C)c(=O)n2c31 ?
yes

Per the assay record, what outcome was assigned to O=C(/C=C/c1ccc(Cl)cc1)c1ccc(Cl)c(Cl)c1 ?
no

Per the assay record, what outcome was assigned to Oc1ccc(/C=C\c2nnc(/C=C\c3ccc(O)c(O)c3)s2)cc1O ?
no

Per the assay record, what outcome was assigned to O=C(O)c1cnccc1-c1cc(=O)[nH]n1-c1ccccc1 ?
no

Per the assay record, what outcome was assigned to CCOC(=O)c1c2ccc(/C=C/C(=O)OC)ccc-2c(C(=O)OCC)c1N ?
no

---

# GI50 per entry
system: HOP-18; test: NCI tumour cell line growth inhibition, 48 h
Active and inactive are the calls of the source. Cut-off read from the data, not from the text of the source: active = GI50 up to about 1.1 µM and inactive = higher.

According to the records, this molecule COc1cccc2nc3c(C(=O)NCCN(C)C)cccc3nc12 displays GI50 of 29.5 µM (inactive)

According to the records, this molecule Cc1c(N)c(C#N)c2n(C)c3ncccc3n2c1=O displays GI50 of > 100 µM (inactive)

According to the records, this molecule c1ccc2c(c1)[nH]c1c2nc2ccccn21 displays GI50 of > 100 µM (inactive)

***
According to the records, this molecule Nc1ccc2ncc(NCc3ccc(F)cc3)nc2c1 displays GI50 of > 100 µM (inactive)

According to the records, this molecule O=[PH](O)c1cc2ccccc2c2ccccc12 displays GI50 of > 100 µM (inactive)

According to the records, this molecule O=C(NC1C(=O)NNC1c1ccccc1Cl)c1ccccc1 (centres undefined) displays GI50 of > 100 µM (inactive)

---

tested on: HCT-116; assay: NCI tumour cell line growth inhibition, 48 h
Activity calls are given as the source filed them. Cut-off read from the data, not from the text of the source: active = GI50 up to about 1.1 µM and inactive = higher.
Can you answer with just one of these options? y = active, n = inactive

These solved cases illustrate the format of a correct answer.
Per the assay record, what outcome was assigned to Cn1cnc([N+](=O)[O-])c1[Se]c1ncnc2nc[nH]c12 ?
n

Per the assay record, what outcome was assigned to CC(=O)Nc1c(C(=N)C#N)ncn1CCO ?
n

Okay, next one:
Per the assay record, what outcome was assigned to O=S1(=O)CCC2=CC(C(F)(F)F)=CC(C(F)(F)F)=CN21 ?
y

---

system: CCRF-CEM; test: NCI tumour cell line growth inhibition, 48 h
Calls of active or inactive are those of the source. Cut-off read from the data, not from the text of the source: active = GI50 up to about 1.1 µM and inactive = higher.
Can you answer with just one of these options? 1 (active), 0 (inactive)

Per the assay record, what outcome was assigned to COc1cc(C2C=C(c3ccccc3)Oc3cc4c(cc32)OCO4)cc(OC)c1OC (stereo not given) ?
1

Per the assay record, what outcome was assigned to CCOC(=O)C1C(c2ccc3c(c2)OCO3)c2c(n[nH]c2O)CC1(O)OCC (stereo not given) ?
0

Per the assay record, what outcome was assigned to Cc1ccc(-n2nnc(C(N)=O)c2O)cc1 ?
0

Per the assay record, what outcome was assigned to COC(=O)/C(=C\c1ccco1)P(=O)(OC)OC ?
0

Per the assay record, what outcome was assigned to CCOP(C)(=O)C(N)Cc1ccc(OC)c(OC)c1 (stereo not given) ?
0

Per the assay record, what outcome was assigned to O=C1Sc2cc3ccccc3cc2C(=O)Sc2cc3ccccc3cc21 ?
0

***
Per the assay record, what outcome was assigned to COc1cc2ccc3ccncc3c2cc1OC ?
0

Per the assay record, what outcome was assigned to COc1cc([N+](=O)[O-])c(S(=O)(=O)O)cc1-n1nc(C(=O)Nc2ccccc2)n[n+]1-c1cc(S(=O)(=O)[O-])c([N+](=O)[O-])cc1OC ?
0

Per the assay record, what outcome was assigned to N#CC1(Cc2ccccc2[N+](=O)[O-])c2ccccc2C2C(N1C(=O)c1ccccc1)C2(Cl)Cl (stereo not given) ?
0

---

test system: DMS-114; experiment: NCI tumour cell line growth inhibition, 48 h
The source made the active and inactive calls. Cut-off read from the data, not from the text of the source: active = GI50 up to about 1.1 µM and inactive = higher.
Can you answer with just one of these options? yes (1) = active, no (0) = inactive

Per the assay record, what outcome was assigned to NC(=O)C(c1ccccc1)N1CCOCC1 (configuration not stated) ?
no (0)

***
Per the assay record, what outcome was assigned to O=C1C=C2SC3C[C@@]24CC1(O)[N+]1=c2c4c(c(O)c4c2=C(C=N4)CC1)N3 ?
yes (1)

Per the assay record, what outcome was assigned to CC(=O)OC(CC1(C)C(C)CCC23COC(=O)C2=CCCC31)c1ccoc1 (configuration not stated) ?
no (0)

Per the assay record, what outcome was assigned to Cc1cc(OCC(O)CO)ccc1Cl (configuration not stated) ?
no (0)

Per the assay record, what outcome was assigned to O=C1C(=O)N(C(=O)c2ccc(Cl)c(Cl)c2)c2ccc(Cl)cc21 ?
no (0)

Per the assay record, what outcome was assigned to O=C(NC1C(=O)NNC1c1ccccc1Cl)c1ccccc1 (configuration not stated) ?
no (0)

Per the assay record, what outcome was assigned to CC1(C)N=C(c2ccccn2)C(c2ccccn2)=NC1(C)C ?
no (0)

src = ChEMBL document CHEMBL1201862
